- assayedTarget: IDO1 (Homo sapiens, UniProt P14902)
- Construct: a human cervical cancer cell line HeLa that endogenously expresses IDO1 upon IFN-γ treatment; endogenous in cells; host or cells: HeLa cells treated with human IFN-γ
- Sequence (P14902 whole entry): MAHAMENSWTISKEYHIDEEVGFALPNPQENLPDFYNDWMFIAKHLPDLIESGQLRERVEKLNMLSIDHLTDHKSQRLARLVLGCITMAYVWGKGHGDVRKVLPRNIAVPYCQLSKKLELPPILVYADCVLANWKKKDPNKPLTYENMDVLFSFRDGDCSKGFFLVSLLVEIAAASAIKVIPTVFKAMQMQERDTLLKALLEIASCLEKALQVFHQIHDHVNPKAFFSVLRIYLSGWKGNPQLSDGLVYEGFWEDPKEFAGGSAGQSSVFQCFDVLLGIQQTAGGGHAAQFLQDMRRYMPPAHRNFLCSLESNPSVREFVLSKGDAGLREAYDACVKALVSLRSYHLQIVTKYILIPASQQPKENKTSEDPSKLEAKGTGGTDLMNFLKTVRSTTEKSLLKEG
- procedureDetails: HeLa cell-based IDO1/kynurenine assay
- recordedConditions: percentage inhibition at 30 μM; IFN-γ-treated HeLa cells, kynurenine in media
readoutType: inhibition at 30 µM (%)

A = C=CC(=O)Nc1ccc(S(=O)(=O)Nc2ncccn2)cc1 [8h]
B = Nc1ccc(S(=O)(=O)NCc2ccc(Cl)cc2)cc1 [4d]
// returns A or B , whichever has the lower inhibition at 30 µM When you have decided, please share the label of that item.
B
(B: -4.2%, A: 16.4%)
